# TEST SYSTEM: Sentrin-specific protease 8 (Homo sapiens) (UniProt Q96LD8)
# Sequence (Q96LD8 whole entry, looked up): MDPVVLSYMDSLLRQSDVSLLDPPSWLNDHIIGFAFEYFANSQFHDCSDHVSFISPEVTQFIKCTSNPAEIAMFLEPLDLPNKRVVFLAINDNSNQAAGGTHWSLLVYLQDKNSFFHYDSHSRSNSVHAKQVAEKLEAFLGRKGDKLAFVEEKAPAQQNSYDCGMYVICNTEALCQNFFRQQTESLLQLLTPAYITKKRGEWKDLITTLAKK
# EXPERIMENTAL DETAILS: potency of human SENP8 inhibitors, dose response, biochemical, Nedd8 protein substrate (AID 624322)
# TEST SETTINGS: recombinant SENP8, Nedd8 substrate cleavage inhibition
In this section, each of the compounds is paired with its reported IC50.

Give the reported IC50 for this compound. `CC1=C(SCCC#N)S/C(=C2\SC(C)=C(SCCC#N)S2)S1`
0.297 µM

###

# TEST SYSTEM: Sentrin-specific protease 8 (Homo sapiens) (UniProt Q96LD8)
# EXPERIMENTAL DETAILS: potency of human SENP8 inhibitors, dose response, biochemical, Nedd8 protein substrate (AID 624322)
# TEST SETTINGS: recombinant SENP8, Nedd8 substrate cleavage inhibition
Activity calls are given as the source filed them. No rule for the calls is given here.
Lab note: assign the record to one of class 1 for active, class 0 for inactive

Recorded results for 4 compounds are shown here.
>>> df
                                   compound  class_name
0  O=C(N/N=C/c1ccc([N+](=O)[O-])o1)c1ccccc1-n1cccc1     class 0
1            O=[N+]([O-])c1cc(F)c2cccnc2c1O     class 1
2  NC(=O)c1ccc(N=Cc2ccc([N+](=O)[O-])s2)cc1     class 1
3         Cn1c(Cc2ccccc2)nnc1SCC(=O)c1cccs1     class 0

Could you please tell me the result logged for CCCn1nc([N+](=O)[O-])c(C(C#N)c2nc3ccccc3o2)c(Cl)c1=O (stereo not given) in this assay?
class 0

What did the test return for `O=C(CCc1ccccc1)c1c(O)cc(O)cc1O` ?
class 0

###

# TEST SYSTEM: Sentrin-specific protease 8 (Homo sapiens)
# EXPERIMENTAL DETAILS: potency of human SENP8 inhibitors, dose response, biochemical, Nedd8 protein substrate (AID 624322)
# TEST SETTINGS: recombinant SENP8, Nedd8 substrate cleavage inhibition
Active and inactive are the calls of the source. No rule for the calls is given here.
API: response.call in active, inactive

Some entries whose results are on file:
In [3]: df
Out[3]:
                                   compound  class_name
0  O=C(Nc1c(-c2ccccc2)[nH][nH]c1=O)c1cnccn1      active
1                 O=C(O)CCCCCCCCCCCc1ccccc1    inactive
2                        O=c1[nH]c2ccccc2s1    inactive
3  O=C(NC1C(=O)NNC1c1ccccc1)c1ccccc1 (centres undefined)    inactive

State the result this test recorded for `Cc1ccc(S(=O)(=O)N[C@H](C(=O)N2CCC(C(=O)N[C@H](C(=O)O)c3ccccc3)CC2)C(C)C)cc1` .
inactive

Which result was noted for this compound in the test: `COc1ccc(O)c(C(c2c(C)[nH][nH]c2=O)c2c(C)[nH][nH]c2=O)c1`
active

What did this assay record as the result for `COc1ccc(-n2[nH]c(C)cc2=O)cc1` ?
inactive

GET /call?item= `O=C(O)c1ccc(Cl)c(S(=O)(=O)NCc2ccco2)c1` returns the recorded outcome of this test.
inactive

So what was the verdict on `O=[N+]([O-])c1ccc(N2CCN(Cc3ccccc3)CC2)c2c1no[n+]2[O-]` in this test?
active
